Tested on: MDA-MB-435
Assay: Antiproliferative activity against MDA-MB-435 human breast carcinoma cells in vitro using MDA-MB-435 monolayer growth assay.
Assay type: functional
Recorded pIC50, one value per entry.
Hey, just a heads up that pIC50 is the negative log base 10 of the concentration in molar.

Consider the following illustrative entries.
molecule="CCCCCCCCCCCCCC(=O)O[C@H]1CCC(NC(=O)[C@H](OC)[C@H](O)[C@@H](O)[C@H](O)/C=C/C(C)(C)C)C(=O)N(C)C1 (stereo partly specified)" outcomemeasure=pIC50 reportedresult=8.00
molecule="CO[C@@H](C(=O)NC1CC[C@@H](OC(=O)CC2CCCCC2)CNC1=O)[C@H](O)[C@@H](O)[C@H](O)/C=C/C(C)(C)C (stereo partly specified)" outcomemeasure=pIC50 reportedresult=7.22
molecule="CO[C@@H](C(=O)NC1CC[C@@H](OC(=O)C2CCCCC2)CNC1=O)[C@H](O)[C@@H](O)[C@H](O)/C=C/C(C)(C)C (stereo partly specified)" outcomemeasure=pIC50 reportedresult=8.40
molecule="CO[C@@H](C(=O)NC1CC[C@@H](OC(=O)CCc2ccccc2)CNC1=O)[C@H](O)[C@@H](O)[C@H](O)/C=C/C(C)(C)C (stereo partly specified)" outcomemeasure=pIC50 reportedresult=8.00

Kindly review the next molecule as well.
Req: # get_value(readout='pIC50', item= CO[C@@H](C(=O)NC1CC[C@@H](OC(=O)C2CCCCCC2)CNC1=O)[C@H](O)[C@@H](O)[C@H](O)/C=C/C(C)(C)C (stereo partly specified) )
Resp: 7.70
